- TESTED ON: T1, extracellular domain (ECD) of human epidermal growth factor receptor 2 (HER2) (Homo sapiens, UniProt P04626)
- T1 construct: human epidermal growth factor receptor 2 (HER2), extracellular domain; also called HER2/ECD
- RUN DESCRIPTION: SPR; BIAcore T200; HER2/ECD immobilised on a CM5 chip by amine coupling to 1000 RU; IgG flowed in PBST (0.05% Tween 20) at 30 uL/min; regeneration 10 mM glycine pH 1.5; global fit to a 1:1 binding model
- SETTINGS: both partners purified
MEASUREMENT NAME: log10(kon) (log10 of the value in M⁻¹ s⁻¹)
Base-10 log of kon, unit M⁻¹ s⁻¹.

Use the examples below as a reference point.
BINDER	RECORDED VALUE
M62 IgG (mouse anti-HER2/ECD) (antibody, V domains shown, mouse VL; L49~L53 HSASY; L91~L96 YNSYPL; mouse VH; H50~H58 EIYPGGGNPY; H96~H100B YKYDVS; recombinant IgG from a scFv of an immunized mouse's phage library; source: HEK293-F, transient transfection, purified (Protein A, Superdex 200)) VH: EVQLQQSGTELARPGASVKLSCKASGYTFIDYYITWVKQRTGQGLEWIGEIYPGGGNPYYNDNFKGKASLTADKSSNTVYMQLSSLTSEDSAVYFCARSYKYDVSVYWGQGTLVTVSA VL: DIQMIQSQKFMSTSVGDRVSVTCKASQNVGTNVAWYQQKPGQSPKALIHSASYRYSGVPDRFTGSGSGTDFTLTISNVQSEDLAEYFCQQYNSYPLTFGAGTKLEIK	5.90
GH2-75 IgG (antibody, V domains shown, source: HEK293-F, transient transfection, purified (Protein A, Superdex 200)) VH: EVQLVESGGGLVQPGGSLRLSCAASGSTIGNSGIHWVRQAPGKGLEWVAYIGPYGGYTSYADSVKGRFTISADTSKNTAYLQMNSLRAEDTAVYYCARFDDYHWDGMDYWGQGTLVTVSS VL: DIQMTQSPSSLSASVGDRVIITCRASQDVSGYVAWYQQKPGKAPKLLIYSSGVPSRFSGSGSGTDFTLTISSLQPEDFATYYCQQYYNWPVTFGQGTKVEIK	5.92
GH2-21 IgG (antibody, V domains shown, source: HEK293-F, transient transfection, purified (Protein A, Superdex 200)) VH: EVQLVESGGGLVQPGGSLRLSCAASGFTINDYSIHWVRQAPGKGLEWVASIWPFGGSTSYADSVKGRFTISADTSKNTAYLQMNSLRAEDTAVYYCARFNYWIGIIMDYWGQGTLVTVSS VL: DIQMTQSPSSLSASVGDRVTITCRASQDVSDNVAWYQQKPGKAPKLLIYWATGLYSGVPSRFSGSGSGTDFTLTISSLQPEDFATYYCQQYYGFPLTFGQGTKVEIK	5.65

Ask: Name the recorded log10(kon) for GH2-60 IgG (antibody, V domains shown, source: HEK293-F, transient transfection, purified (Protein A, Superdex 200)) VH: EVQLVESGGGLVQPGGSLRLSCAASGFTISDFGIHWVRQAPGKGLEWVAGIWPYWGYTYYADSVKGRFTISADTSKNTAYLQMNSLRAEDTAVYYCARFWNIYWNVMDYWGQGTLVTVSS VL: DIQMTQGPSSLSASVGDRVTITCRASQDVGSWVAWYQQKPGKAPKLLISSPPSLYSGVPSRFSGSGSGTDFTLTISSLQPEDFATYYCQQGFDSPITFGQGTKVEIK .
Reply: 6.56

Ask: Name the recorded log10(kon) for GH2-102 IgG (antibody, V domains shown, source: HEK293-F, transient transfection, purified (Protein A, Superdex 200)) VH: EVQLVESGGGLVQPGGSLRLSCAASGFTINGGGIHWVRQAPGKGLEWVASIGPYGGYTSYADSVKGRFTISADTSKNTAYLQMNSLRAGDTAVYYCARFGHHYDGHMDYWGQGTLVTVSS VL: DIQMTQSPSSLSASVGDRVTITCRASQDVGSNVAWYQQKPGKAPKLLIYGAPYLYSGVPSRFSGSGSGTDFTLTISSLQPEDFATYYCQQYYNWPLTFGQGTKVEIK .
Reply: 6.14

Ask: Name the recorded log10(kon) for GH2-23 IgG (antibody, V domains shown, source: HEK293-F, transient transfection, purified (Protein A, Superdex 200)) VH: EVQLVESGGGLVQPGGSLRLSCAASGFTINGGGIHWVRQAPGKGLEWVAFIGPFGGSTFYADSVKGRFTISADTSKNTAYLQMNSLRAEDTAVYYCARFFGGNIHVMDYWGQGTLVTVSS VL: DIQMTQSPSSLSASVGDRVTITCRASQDVFWGVAWYQQKPGKAPKLLISWSASLYSGVPSRFSGSGSGTDFTLTISSLQPEDFATYYCQQYFSFPFTFGQGTKVEIK .
Reply: 5.34
